Each item that follows carries a reported IC50.
Biological target: Human Factor D (Homo sapiens)
Construct: purified from human serum; purchased Complement Technology, Inc; host or cells: human serum (natural protein, not recombinant)
Sequence (P00746 26-253): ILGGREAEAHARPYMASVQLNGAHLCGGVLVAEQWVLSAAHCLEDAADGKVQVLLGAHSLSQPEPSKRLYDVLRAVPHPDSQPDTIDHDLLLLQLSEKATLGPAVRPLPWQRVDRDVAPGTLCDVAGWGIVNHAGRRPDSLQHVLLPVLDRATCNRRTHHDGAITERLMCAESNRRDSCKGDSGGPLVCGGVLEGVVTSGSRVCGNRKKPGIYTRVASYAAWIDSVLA
Assay: Human Factor D Assay
Type: biochemical
Settings: Human Factor D 80 nM, substrate Z-L-Lys-SBzl; Table 2; read-out: IC50 (Stars)

Take a look at these entries with their results.
>>> endpoint_result("CC(=O)c1nn(CC(=O)N2[C@H]3CC[C@H](C3)[C@H]2C(=O)Nc2nc(Br)c(F)cc2C)c2c(C3CC3)cc(-c3cnc(C)nc3)cc12 [Compound 122]")
"< 1000 nM"
>>> endpoint_result("CC(=O)c1nn(CC(=O)N2[C@H](C(=O)N[C@H]3CCCCC3(F)F)C[C@@]3(C)C[C@@H]23)c2c(C)cc(-c3cnc(C)nc3)cc12 [Compound 149]")
"< 1000 nM"
>>> endpoint_result("CC(=O)c1cn(CC(=O)N2[C@H](C(=O)Nc3ccc(C)c(Br)n3)C[C@@]3(C)C[C@@H]23)c2c(C)cc(-c3cnc(C)nc3)cc12 [Compound 156]")
"< 1000 nM"

Query CC(=O)c1cn(CC(=O)N2[C@H](C(=O)Nc3nc(C(F)(F)F)ccc3C)C[C@@]3(C)C[C@@H]23)c2c(CF)cc(-c3cnc(C)nc3)cc12 [Compound 239] yields IC50 of < 1000 nM

Query CC(=O)c1nn(CC(=O)N2[C@H](C(=O)Nc3nc(Br)ccc3C)C[C@@]3(C)C[C@@H]23)c2cc(CF)c(Nc3cnc(C)nc3)cc12 [Compound 185] yields IC50 of < 1000 nM

Query CC(=O)c1nn(CC(=O)N2[C@H](C(=O)Nc3cnc(C)c(Br)n3)C[C@@]3(C)C[C@@H]23)c2c(C)cc(-c3cnc(CO)nc3)cc12 [Compound 94] yields IC50 of < 1000 nM
